System: SF-539
Assay: NCI tumour cell line growth inhibition, 48 h
Active and inactive are the calls of the source. No stated cut-off is given here; in the data, active = GI50 up to about 1.1 µM and inactive = higher.
Overview of reported GI50 across a group of compounds:

Input line: Return reported GI50; argument: O=C(NCCN1CCOCC1)c1cn2c(ccc3sc4ccccc4c(=O)c32)n1
Output line: 45.3 µM (inactive)

Input line: Return reported GI50; argument: N#C/N=C(/N)NCO
Output line: > 100 µM (inactive)

Input line: Return reported GI50; argument: COc1ccc2oc(=O)c(-c3cc4c(c(C)n3)c(=O)oc3ccc(OC)cc34)cc2c1
Output line: 93.5 µM (inactive)

---

System: HOP-62
Assay: NCI tumour cell line growth inhibition, 48 h
Activity calls are given as the source filed them. No stated cut-off is given here; in the data, active = GI50 up to about 1.1 µM and inactive = higher.
Overview of reported GI50 across a group of molecules:

CC1(C)CCC[C@]2(C)[C@@H]1CC[C@@]13O[C@@H]1C1=C(CO)C(=O)OC1=C[C@@H]23 ... 25.6 µM (inactive)

Input line: Return reported GI50; argument: CCOC(=O)C1=C(Nc2ccc(Cl)cc2Cl)OC/C1=N\NS(=O)(=O)c1ccc(C)cc1
Output line: > 100 µM (inactive)

Input line: Return reported GI50; argument: CC(C)COP(C)(=O)C(N)(C(F)(F)F)C(F)(F)F (centres undefined)
Output line: > 100 µM (inactive)

Input line: Return reported GI50; argument: COc1ccc(-c2c(C#N)c(S)n(NS(=O)(=O)c3ccccc3)c(=O)c2C#N)cc1
Output line: > 100 µM (inactive)

---

Test system: TK-10
Assay: NCI tumour cell line growth inhibition, 48 h
Activity calls are given as the source filed them. Rule as the data show it: active = GI50 up to about 1.1 µM and inactive = higher.
Overview of reported GI50 across a group of molecules:

C/C(=N\NS(=O)(=O)c1ccc(C)cc1)P(=O)(O)O ... > 100 µM (inactive)
O=C(Cc1ccccc1)Oc1ccc2c(-c3ccccc3)c(C(=O)Nc3ccc(Cl)cc3)c(=O)oc2c1 ... > 100 µM (inactive)
COC(=O)C1(C(=O)OC)C/C(C)=C(/C)SCCCS1 ... > 100 µM (inactive)
O=C1c2ccccc2C2(O)Oc3cccc(O)c3C12O (stereo not given) ... > 100 µM (inactive)

Input line: Return reported GI50; argument: CN(C)CCCN1c2ccc([N+](=O)[O-])cc2CCc2cc([N+](=O)[O-])ccc21
Output line: 12 µM (inactive)

---

Tested on: SF-295
Assay: NCI tumour cell line growth inhibition, 48 h
The source made the active and inactive calls. No stated cut-off is given here; in the data, active = GI50 up to about 1.1 µM and inactive = higher.
Outcomes you can answer with include only these: yes (1) = active, no (0) = inactive

These recorded examples may help you get a feel for the data.
CC(C)(Cl)C(Br)CC/C(CBr)=C(/Cl)CCl.CC(C)(Cl)C(Br)CC/C(CBr)=C(\Cl)CCl (stereo not drawn) ... no (0)
COC(=O)C1=C(C)NC(C)=C([N+](=O)[O-])C1c1cccc(N=O)c1 (stereo not drawn) ... no (0)
C/C(=N\N=C(/S)SCc1ccccc1)c1ccccn1 ... yes (1)

Input line: # outcome recorded in this test, key = Clc1ccc(OCC2NC3CCC2CC3)cn1 (stereo not drawn)
Output line: no (0)

Input line: # outcome recorded in this test, key = COc1cc2c(cc1OS(C)(=O)=O)N=C[C@@H]1CCCN1C2=O
Output line: no (0)

Input line: # outcome recorded in this test, key = O=C1NCC2(CCNCC2)N1c1ccccc1
Output line: no (0)

Input line: # outcome recorded in this test, key = O=C(Nc1cc(Cl)c(Cl)cc1Cl)C(=O)C(C(=O)c1ccc2ccccc2c1)C1OC(=O)c2ccccc21 (stereo not drawn)
Output line: no (0)

Input line: # outcome recorded in this test, key = CCCC/C=C1\CCC(CN2CCOCC2)C1=O (stereo not drawn)
Output line: no (0)

Input line: # outcome recorded in this test, key = Cc1cn(CCCCCCC2=NCCCN2)c(=O)[nH]c1=O
Output line: no (0)

Input line: # outcome recorded in this test, key = COCCNc1cncc(C(N)=O)c1
Output line: no (0)

Input line: # outcome recorded in this test, key = N=C(N)SCC(=O)O
Output line: no (0)

Input line: # outcome recorded in this test, key = Cc1cc2c(=O)[nH]nc(N)c2c(N)n1
Output line: no (0)

Input line: # outcome recorded in this test, key = O=C(c1ccc(Cl)cc1Cl)N(Cc1cccnc1)C(=S)N(Cc1cccnc1)C(=O)c1ccc(Cl)cc1Cl
Output line: no (0)

Input line: # outcome recorded in this test, key = N#Cc1ccc(OC(=O)c2ccc(NC(=N)N)cc2)cc1.c1ccncc1
Output line: no (0)

Input line: # outcome recorded in this test, key = CN(C)c1ccc(/C=C/c2ccc3ccccc3[n+]2C)cc1
Output line: no (0)

Input line: # outcome recorded in this test, key = Cc1nc2c(o1)/C(=N\c1ccccc1)c1ccccc1/C2=N/c1ccccc1
Output line: no (0)

Input line: # outcome recorded in this test, key = COc1c(C)c2c(c(=O)c3c(C)cccc3n2C)c2c1c(=O)c1c(C)cccc1n2C
Output line: no (0)

Input line: # outcome recorded in this test, key = Cc1ccc(-n2c(N)c(C#N)c3[nH]nc(N)c3c2=O)cc1
Output line: no (0)

Input line: # outcome recorded in this test, key = COC(=O)c1c2c(cc3c1CC1(Cc4cc5c(c(C)c4C1)CCC5)C3)CCC2 (stereo not drawn)
Output line: no (0)

Input line: # outcome recorded in this test, key = Cc1cc2nc3ccc(N(C)C)cc3[s+]c2cc1N [TOLONIUM CHLORIDE]
Output line: no (0)

Input line: # outcome recorded in this test, key = Cc1cc(S(=O)(=O)NC2=Nc3cccc(F)c3CN2)c(S)cc1Cl
Output line: no (0)

Input line: # outcome recorded in this test, key = COC(=O)[C@H](CC(C)C)NC1=C(Cl)C(=O)c2c(O)ccc(O)c2C1=O
Output line: no (0)

Input line: # outcome recorded in this test, key = CC(C)C(C/C=C1/CC(CO)(COC(=O)C(C)(C)C)OC1=O)C(C)C (stereo not drawn)
Output line: no (0)

The measured values listed here are drawn from ChEMBL document CHEMBL1201862.
